The origin of these recorded values is patent US8344146B2.

- System Name: DD-peptidase R61 (Streptomyces sp., UniProt P15555)
- Construct: DD-peptidase R61 produced by Streptomyces sp; R61; gift: Prof; Jean-Maria Ghuysen; host or cells: Streptomyces sp; R61 (natural producer)
- Sequence (P15555 32-380): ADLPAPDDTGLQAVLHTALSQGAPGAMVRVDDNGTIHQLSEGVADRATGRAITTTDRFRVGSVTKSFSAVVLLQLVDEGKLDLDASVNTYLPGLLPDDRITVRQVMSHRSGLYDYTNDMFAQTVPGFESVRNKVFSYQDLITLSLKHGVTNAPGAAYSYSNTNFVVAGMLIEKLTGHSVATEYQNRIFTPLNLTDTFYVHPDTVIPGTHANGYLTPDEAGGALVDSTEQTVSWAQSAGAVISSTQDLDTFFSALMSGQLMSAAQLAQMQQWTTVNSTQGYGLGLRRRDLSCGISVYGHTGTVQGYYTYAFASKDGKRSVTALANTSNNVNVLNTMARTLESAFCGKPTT
- Test Method Notes: DD-peptidase R61 activity inhibition (ID50)
- Format: biochemical
- Cond: DD-peptidase R61, purified inhibitor; read-out: ID50 (M), molar concentration of inhibitor which inhibits 50% of enzyme activity
Outcome Measure: IC50 (M)
Give just the numeric value; M need not be written.

IC50 for O=C1C=C2CC(C(=O)O)NC=C2C=C1O (stereo not shown) ?
0.000675

---

- System Name: DD-peptidase R39 (Actinomadura sp.)
- Construct: extracellular DD-peptidase R39 produced by Actinomadura sp; R39; gift: Prof; Jean-Maria Ghuysen; host or cells: Actinomadura sp; R39 (natural producer, secreted)
- Sequence (P39045 50-538): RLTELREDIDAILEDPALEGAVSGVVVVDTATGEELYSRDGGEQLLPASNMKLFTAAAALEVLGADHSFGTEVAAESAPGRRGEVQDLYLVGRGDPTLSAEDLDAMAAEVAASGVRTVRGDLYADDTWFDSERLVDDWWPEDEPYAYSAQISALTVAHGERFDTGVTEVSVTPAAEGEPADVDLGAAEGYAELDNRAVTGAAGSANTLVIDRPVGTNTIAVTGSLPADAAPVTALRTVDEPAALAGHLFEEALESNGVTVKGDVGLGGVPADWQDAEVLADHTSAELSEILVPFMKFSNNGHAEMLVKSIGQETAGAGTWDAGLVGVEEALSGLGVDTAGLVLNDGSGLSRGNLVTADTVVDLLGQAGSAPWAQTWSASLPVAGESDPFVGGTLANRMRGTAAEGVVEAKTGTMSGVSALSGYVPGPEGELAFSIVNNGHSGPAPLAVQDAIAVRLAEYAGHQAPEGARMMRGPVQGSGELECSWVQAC
- Test Method Notes: DD-peptidase R39 activity inhibition (ID50)
- Assay type: biochemical
- Cond: DD-peptidase R39, purified inhibitor; read-out: ID50 (M), molar concentration of inhibitor which inhibits 50% of enzyme activity
Outcome Measure: IC50
Field note: include the unit after the figure.

For O=C1C=C2CC(C(=O)O)NC=C2C=C1O (stereo not shown) [inhibitor] , what is its reported IC50?
0.00045 M
